Overview of reported mortality at 100 µM across a group of compounds:
Tested on: Schistosoma japonicum
Test: Anti-schistosomal activity against adult Schistosoma japonicum assessed as worm mortality at 100 uM measured at 12 hrs relative to control
Format: functional
Experimental Endpoint: mortality at 100 µM (%)

| Compound | Experimental Value |
| --- | --- |
| CCOC(=O)/C=C1\S/C(=N\c2ccccc2Cl)N(CCCN2CCN(C)CC2)C1=O | 100 |
| CCOC(=O)/C=C1\S/C(=N\c2ccccc2)N(CCCN(C)C)C1=O | 0 |
| CN1CCN(CCCN2C(=O)/C(=C/c3ccc(Cl)cc3)S/C2=N\c2ccc(C(F)(F)F)cc2)CC1 | 0 |
| CN1CCN(CCCN2C(=O)/C(=C/c3ccc([N+](=O)[O-])cc3)S/C2=N\c2ccc(C(F)(F)F)cc2)CC1 | 0 |
| CCOC(=O)/C=C1\S/C(=N\c2ccccc2)N(CCN2CCOCC2)C1=O | 0 |
| CCOC(=O)/C=C1\S/C(=N\c2ccccc2Br)N(CCCN2CCN(C)CC2)C1=O | 60 |
| CCOC(=O)/C=C1\S/C(=N\c2ccc(Cl)c(Cl)c2)N(CCCN2CCN(C)CC2)C1=O | 100 |
| O=C(C1CCCCC1)N1CC(=O)N2CCc3ccccc3C2C1 (centres undefined) [PRAZIQUANTEL] | 100 |
| CN1CCN(CCCN2C(=O)/C(=C/c3ccccc3Cl)S/C2=N\c2ccc(C(F)(F)F)cc2)CC1 | 0 |

====

System: Schistosoma japonicum
Assay: Anti-schistosomal activity against adult Schistosoma japonicum assessed as worm mortality at 100 uM measured at 12 hrs relative to control
Type: functional

| Chemical Structure | Measured Target | Unit Tag | mortality at 100 µM |
| --- | --- | --- | --- |
| CN1CCN(CCCN2C(=O)/C(=C/c3ccccc3)S/C2=N\c2ccc(C(F)(F)F)cc2)CC1 | Schistosoma japonicum | % | 0 |
| CCOC(=O)/C=C1\S/C(=N\c2cc(C(F)(F)F)cc(C(F)(F)F)c2)N(CCCN2CCN(C)CC2)C1=O | Schistosoma japonicum | % | 100 |
| CCOC(=O)/C=C1\S/C(=N\c2cccc(Cl)c2)N(CCCN2CCN(C)CC2)C1=O | Schistosoma japonicum | % | 100 |
| CCOC(=O)/C=C1\S/C(=N\c2ccccc2)N(CCCN2CCOCC2)C1=O | Schistosoma japonicum | % | 0 |
| CCOC(=O)/C=C1\S/C(=N\c2ccc(Cl)cc2)N(CCCN2CCN(C)CC2)C1=O | Schistosoma japonicum | % | 80 |
| Cc1cc(/C=C2\S/C(=N\c3ccc(C(F)(F)F)cc3)N(CCCN3CCN(C)CC3)C2=O)ccc1F | Schistosoma japonicum | % | 0 |
| CCOC(=O)/C=C1\S/C(=N\c2ccccc2)N(CCN2CCCC2)C1=O | Schistosoma japonicum | % | 0 |
| CCOC(=O)/C=C1\S/C(=N\c2cccc(Br)c2)N(CCCN2CCN(C)CC2)C1=O | Schistosoma japonicum | % | 80 |
| COc1ccccc1/C=C1\S/C(=N\c2ccc(C(F)(F)F)cc2)N(CCCN2CCN(C)CC2)C1=O | Schistosoma japonicum | % | 0 |
| CN1CCN(CCCN2C(=O)/C(=C/c3ccccc3F)S/C2=N\c2ccc(C(F)(F)F)cc2)CC1 | Schistosoma japonicum | % | 0 |
| Cc1cccc(/C=C2\S/C(=N\c3ccc(C(F)(F)F)cc3)N(CCCN3CCN(C)CC3)C2=O)c1 | Schistosoma japonicum | % | 0 |
| CCOC(=O)/C=C1\S/C(=N\c2ccc(Br)cc2)N(CCCN2CCN(C)CC2)C1=O | Schistosoma japonicum | % | 60 |
| CN1CCN(CCCN2C(=O)/C(=C/c3cccc(F)c3)S/C2=N\c2ccc(C(F)(F)F)cc2)CC1 | Schistosoma japonicum | % | 0 |
| CCOC(=O)/C=C1\S/C(=N\c2ccccc2)N(CCN(CC)CC)C1=O | Schistosoma japonicum | % | 0 |
| CCOC(=O)/C=C1\S/C(=N\c2ccc(OC)cc2)N(CCCN2CCN(C)CC2)C1=O | Schistosoma japonicum | % | 0 |

====

Assay: Acute toxicity in po dosed ICR mouse assessed as lethal dose
Assay type: organism-based
Settings: in vivo
Experimental Endpoint: LD50

| Chemical Structure | Experimental Value |
| --- | --- |
| CCOC(=O)/C=C1\S/C(=N\c2ccc(C(F)(F)F)cc2)N(CCCN2CCN(C)CC2)C1=O | 1400 mg/kg |

====

System: Schistosoma japonicum
Experiment: Anti-schistosomal activity against adult Schistosoma japonicum assessed as worm mortality at 100 uM measured at 12 hrs relative to control
Assay type: functional

| Chemical Structure | mortality at 100 µM (%) |
| --- | --- |
| Cc1ccccc1/C=C1\S/C(=N\c2ccc(C(F)(F)F)cc2)N(CCCN2CCN(C)CC2)C1=O | 0 |
| CCOC(=O)/C=C1\S/C(=N\c2ccccc2)N(CCN(C)C)C1=O | 0 |
| CN1CCN(CCCN2C(=O)/C(=C/c3cccc(Cl)c3)S/C2=N\c2ccc(C(F)(F)F)cc2)CC1 | 70 |
| CCOC(=O)/C=C1\S/C(=N\c2ccccc2)N(CCN2CCC(Cc3ccccc3)CC2)C1=O | 0 |
| CCOC(=O)/C=C1\S/C(=N\c2ccccc2)N(CCCN2CCN(C)CC2)C1=O | 0 |
| COc1ccc(/C=C2\S/C(=N\c3ccc(C(F)(F)F)cc3)N(CCCN3CCN(C)CC3)C2=O)cc1 | 0 |

====

Overview of reported mortality at 100 µM across a group of molecules:
Tested on: Schistosoma japonicum
Assay: Anti-schistosomal activity against adult Schistosoma japonicum assessed as worm mortality at 100 uM measured at 8 hrs relative to control
Assay type: functional

| Chemical Structure | mortality at 100 µM [%] |
| --- | --- |
| CCOC(=O)/C=C1\S/C(=N\c2ccccc2Cl)N(CCCN2CCN(C)CC2)C1=O | 40 |
| Cc1cccc(/C=C2\S/C(=N\c3ccc(C(F)(F)F)cc3)N(CCCN3CCN(C)CC3)C2=O)c1 | 0 |
| CN1CCN(CCCN2C(=O)CS/C2=N\c2ccc(C(F)(F)F)cc2)CC1 | 0 |
| CCOC(=O)/C=C1\S/C(=N\c2ccccc2)N(CCN2CCOCC2)C1=O | 0 |
| CCOC(=O)/C=C1\S/C(=N\c2cccc(Cl)c2)N(CCCN2CCN(C)CC2)C1=O | 30 |
| CCOC(=O)/C=C1\S/C(=N\c2ccccc2)N(CCN(C)C)C1=O | 0 |
| CCOC(=O)/C=C1\S/C(=N\c2ccc([N+](=O)[O-])cc2)N(CCCN2CCN(C)CC2)C1=O | 0 |
| CCOC(=O)/C=C1\S/C(=N\c2ccccc2)N(CCN2CCCCC2)C1=O | 0 |
| CCOC(=O)/C=C1\S/C(=N\c2ccccc2C(F)(F)F)N(CCCN2CCN(C)CC2)C1=O | 40 |
| CCOC(=O)/C=C1\S/C(=N\c2ccccc2)N(CCCN2CCCC2)C1=O | 0 |
| CCOC(=O)/C=C1\S/C(=N\c2ccc(CC)cc2)N(CCCN2CCN(C)CC2)C1=O | 0 |
| CCOC(=O)/C=C1\S/C(=N\c2cc(F)ccc2F)N(CCCN2CCN(C)CC2)C1=O | 0 |
| COc1cccc(/C=C2\S/C(=N\c3ccc(C(F)(F)F)cc3)N(CCCN3CCN(C)CC3)C2=O)c1 | 0 |
| CCOC(=O)/C=C1\S/C(=N\c2ccccc2)N(CCN(CC)CC)C1=O | 0 |
| CCOC(=O)/C=C1\S/C(=N\c2ccccc2Br)N(CCCN2CCN(C)CC2)C1=O | 20 |
| CN1CCN(CCCN2C(=O)/C(=C/c3ccc([N+](=O)[O-])cc3)S/C2=N\c2ccc(C(F)(F)F)cc2)CC1 | 0 |
| CCOC(=O)/C=C1\S/C(=N\c2ccccc2)N(CCN2CCC(Cc3ccccc3)CC2)C1=O | 0 |
| Cc1ccccc1/C=C1\S/C(=N\c2ccc(C(F)(F)F)cc2)N(CCCN2CCN(C)CC2)C1=O | 0 |
| CN1CCN(CCCN2C(=O)/C(=C/c3ccccc3Cl)S/C2=N\c2ccc(C(F)(F)F)cc2)CC1 | 0 |
| CCOC(=O)/C=C1\S/C(=N\c2ccccc2)N(CCCN2CCN(C)CC2)C1=O | 0 |
| COc1ccccc1/C=C1\S/C(=N\c2ccc(C(F)(F)F)cc2)N(CCCN2CCN(C)CC2)C1=O | 0 |
| Cc1ccc(/C=C2\S/C(=N\c3ccc(C(F)(F)F)cc3)N(CCCN3CCN(C)CC3)C2=O)cc1 | 0 |
| CCOC(=O)/C=C1\S/C(=N\c2ccccc2)N(CCN2CCCC2)C1=O | 0 |
